Test system: SNK-6 (IL-2 2.5 ng/mL);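 also: normalised to DMSO-only wells as negative and benzethonium chloride as positive control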
Assay: percent inhibition of viability; higher = more inhibition
Conditions: 72 h; 1 nM
Please go through the items and note down their percent inhibition of viability.
Kindly provide the numeric value in % only, without the unit symbol.

Notebook entry, SNK-6 (IL-2 2.5 ng/mL) assay: percent inhibition of viability of N#CC1(c2ccc(NC(=O)c3cccnc3NCc3ccncc3)cc2)CCCC1 [Apatinib] (max concentration tested 10000 nM) = ?
21

What do we get for O=C(CCCCCCNC(=O)c1cnc(N(c2ccccc2)c2ccccc2)nc1)NO [Rocilinostat] (max concentration tested 10000 nM) ?
-5.08

What do we get for Oc1nc(-c2ccc(C(F)(F)F)cc2)nc2c1CSCC2 [XAV-939] (max concentration tested 10000 nM) ?
-1.06

What do we get for CS(=O)(=O)N1CCN(Cc2cc3nc(-c4cccc5[nH]ncc45)nc(N4CCOCC4)c3s2)CC1 [Pictilisib] (max concentration tested 10000 nM) ?
9.42

What do we get for Clc1ccc(Nc2nnc(Cc3ccncc3)c3ccccc23)cc1 [Vatalanib] (max concentration tested 10000 nM) ?
9.43

What do we get for Cn1c(=O)n(-c2ccc(C(C)(C)C#N)cc2)c2c3cc(-c4cnc5ccccc5c4)ccc3ncc21 [Dactolisib] (max concentration tested 1000 nM) ?
-26.8

What do we get for Nc1nc(Cl)nc2c1ncn2[C@@H]1O[C@H](CO)[C@@H](O)[C@@H]1F [Clofarabine] (max concentration tested 10000 nM) ?
-9.36

What do we get for C[C@@H]1C[C@H]2[C@@H]3CCC4=CC(=O)C=C[C@]4(C)[C@@]3(F)[C@@H](O)C[C@]2(C)[C@@]1(O)C(=O)CO [Dexamethasone] (max concentration tested 10000 nM) ?
-0.75

What do we get for CN[C@@H](C)C(=O)N[C@H]1CN(C(=O)CC(C)C)CC[C@H]2CC[C@@H](C(=O)NC(c3ccccc3)c3ccccc3)N2C1=O [AT-406] (max concentration tested 10000 nM) ?
-9.2

What do we get for Cn1ncnc1[C@H]1c2n[nH]c(=O)c3cc(F)cc(c23)N[C@@H]1c1ccc(F)cc1 [Talazoparib] (max concentration tested 1000 nM) ?
6.37

What do we get for c1ccc(Cn2c(-c3ccc(OC[C@H](C4CCNCC4)n4c(-c5ccccc5)nc5ccccc54)cc3)nc3ccccc32)cc1 [deltarasin] (max concentration tested 10000 nM) ?
-2.79

What do we get for Cn1c(Nc2ccc(C(F)(F)F)cc2)nc2cc(Oc3ccnc(-c4ncc(C(F)(F)F)[nH]4)c3)ccc21 [RAF265] (max concentration tested 1000 nM) ?
2.76

What do we get for O=C(O)CCCc1ccc(N(CCCl)CCCl)cc1 [Chlorambucil] (max concentration tested 10000 nM) ?
9.02

What do we get for C[C@@H](C(=O)O)c1ccc(-c2ccccc2)c(F)c1 [Tarenflurbil] (max concentration tested 10000 nM) ?
-1.12

What do we get for CC(C)N(C[C@H]1O[C@@H](n2cnc3c(N)ncnc32)[C@H](O)[C@@H]1O)[C@H]1C[C@@H](CCc2nc3cc(C(C)(C)C)ccc3[nH]2)C1 [EPZ-5676] (max concentration tested 1000 nM) ?
4.63

What do we get for Cn1c(CCCC(=O)O)nc2cc(N(CCCl)CCCl)ccc21 [Bendamustine] (max concentration tested 10000 nM) ?
-1.78

What do we get for O=C(O)CC[C@H]1CC[C@@](c2cc(F)ccc2F)(S(=O)(=O)c2ccc(Cl)cc2)CC1 [MK-0752] (max concentration tested 1000 nM) ?
10

What do we get for Nc1ccccc1NC(=O)c1ccc(CNc2nccc(-c3cccnc3)n2)cc1 [Mocetinostat] (max concentration tested 10000 nM) ?
-6.1

###

Test system: normal primary NK cells, pool 3 (3 donors) (IL-2 2.5 ng/mL)
Experiment: relative IC50 (inflection point of fitted viability curve, relative to fitted max inhibition); higher = less sensitive
Details: 72 h
Please go through the items and note down their relative IC50.
Kindly provide the numeric value in nM only, without the unit symbol.

State the recorded relative IC50 for this entry: `NS(=O)(=O)OC[C@@H]1C[C@@H](n2ccc3c(N[C@H]4CCc5ccccc54)ncnc32)C[C@@H]1O`
335

What do we get for `CCCCCCCCc1ccc(CCC(N)(CO)CO)cc1` ?
3410

What do we get for `c1ccc(Cn2c(-c3ccc(OC[C@H](C4CCNCC4)n4c(-c5ccccc5)nc5ccccc54)cc3)nc3ccccc32)cc1` ?
2910

What do we get for `Cc1cc(Nc2nc(N[C@@H](C)c3ncc(F)cn3)ncc2Cl)[nH]n1` ?
123

What do we get for `CO[C@H](C(=O)[C@@H](O)[C@@H](C)O)[C@@H]1Cc2cc3cc(O[C@H]4C[C@@H](O[C@@H]5C[C@@H](O)[C@H](O)[C@@H](C)O5)[C@H](O)[C@@H](C)O4)c(C)c(O)c3c(O)c2C(=O)[C@H]1O[C@H]1C[C@@H](O[C@@H]2C[C@@H](O)[C@@H](O[C@@H]3C[C@](C)(O)[C@H](O)[C@@H](C)O3)[C@@H](C)O2)[C@H](O)[C@@H](C)O1` ?
785

What do we get for Cc1c(N)nc([C@H](CC(N)=O)NC[C@H](N)C(N)=O)nc1C(=O)N[C@H](C(=O)N[C@H](C)[C@@H](O)[C@H](C)C(=O)N[C@H](C(=O)NCCc1nc(-c2nc(C(=O)NCCC[S+](C)C)cs2)cs1)[C@@H](C)O)[C@@H](OC1OC(CO)C(O)C(O)C1OC1OC(CO)C(O)C(OC(N)=O)C1O)c1cnc[nH]1 (some centres not stated) ?
1150

What do we get for `O=C(CCCCCCNC(=O)c1cnc(N(c2ccccc2)c2ccccc2)nc1)NO` ?
2470

What do we get for `COc1nc(N)nc2c1ncn2[C@@H]1O[C@H](CO)[C@@H](O)[C@@H]1O` ?
200

###

System: KHYG-1 (IL-2 2.5 ng/mL)
Assay: relative IC50 (inflection point of fitted viability curve, relative to fitted max inhibition); higher = less sensitive
Details: 72 h
Please go through the items and note down their relative IC50.
Give the number first and the unit second.

State the recorded relative IC50 for this entry: CO[C@H](C(=O)[C@@H](O)[C@@H](C)O)[C@@H]1Cc2cc3cc(O[C@H]4C[C@@H](O[C@@H]5C[C@@H](O)[C@H](O)[C@@H](C)O5)[C@H](O)[C@@H](C)O4)c(C)c(O)c3c(O)c2C(=O)[C@H]1O[C@H]1C[C@@H](O[C@@H]2C[C@@H](O)[C@@H](O[C@@H]3C[C@](C)(O)[C@H](O)[C@@H](C)O3)[C@@H](C)O2)[C@H](O)[C@@H](C)O1 [Plicamycin]
44.7 nM

What do we get for Cc1c(CN2CCN(C(=O)[C@H](C)O)CC2)sc2c(N3CCOCC3)nc(-c3cnc(N)nc3)nc12 [Apitolisib] ?
1600 nM

What do we get for c1ccc(Cn2c(-c3ccc(OC[C@H](C4CCNCC4)n4c(-c5ccccc5)nc5ccccc54)cc3)nc3ccccc32)cc1 [deltarasin] ?
2850 nM

What do we get for NS(=O)(=O)OC[C@@H]1C[C@@H](n2ccc3c(N[C@H]4CCc5ccccc54)ncnc32)C[C@@H]1O [Pevonedistat] ?
69 nM

What do we get for Nc1ccccc1NC(=O)c1ccc(CNc2nccc(-c3cccnc3)n2)cc1 [Mocetinostat] ?
340 nM

###

Test system: normal NK cells expanded with K562-aAPC
Test: percent inhibition of viability; higher = more inhibition
Details: 72 h; IL-2 2.5 ng/mL; 10 nM
MEASUREMENT_KIND: percent inhibition of viability (%)
Kindly provide the numeric value in % only, without the unit symbol.

State the recorded percent inhibition of viability for this entry: CC1(COc2ccc3c(c2)ncn3-c2ccc3cccc(N4CCC(N)CC4)c3n2)COC1 [Crenolanib] (max concentration tested 10000 nM)
-1.22

What do we get for Clc1ccc(Nc2nnc(Cc3ccncc3)c3ccccc23)cc1 [Vatalanib] (max concentration tested 10000 nM) ?
1.3

What do we get for CCn1c(C(=O)N(C2CC2)C2CC2)cc2c3c(ncn3C)c(Nc3cc(C)n(C)n3)nc21 (max concentration tested 10000 nM) ?
4.9

What do we get for CO[C@H](C(=O)[C@@H](O)[C@@H](C)O)[C@@H]1Cc2cc3cc(O[C@H]4C[C@@H](O[C@@H]5C[C@@H](O)[C@H](O)[C@@H](C)O5)[C@H](O)[C@@H](C)O4)c(C)c(O)c3c(O)c2C(=O)[C@H]1O[C@H]1C[C@@H](O[C@@H]2C[C@@H](O)[C@@H](O[C@@H]3C[C@](C)(O)[C@H](O)[C@@H](C)O3)[C@@H](C)O2)[C@H](O)[C@@H](C)O1 [Plicamycin] (max concentration tested 10000 nM) ?
0.95

What do we get for COc1nc(N)nc2c1ncn2[C@@H]1O[C@H](CO)[C@@H](O)[C@@H]1O [Nelarabine] (max concentration tested 10000 nM) ?
1.13

What do we get for c1ccc(Cn2c(-c3ccc(OC[C@H](C4CCNCC4)n4c(-c5ccccc5)nc5ccccc54)cc3)nc3ccccc32)cc1 [deltarasin] (max concentration tested 10000 nM) ?
-5.61

Origin of the recorded values: the supplement of paper PMC5908809
